- targetUnderTest: Hepatocyte nuclear factor 4-alpha (Homo sapiens) (UniProt P41235)
- Sequence (P41235 whole entry, looked up, the tested form may be a part): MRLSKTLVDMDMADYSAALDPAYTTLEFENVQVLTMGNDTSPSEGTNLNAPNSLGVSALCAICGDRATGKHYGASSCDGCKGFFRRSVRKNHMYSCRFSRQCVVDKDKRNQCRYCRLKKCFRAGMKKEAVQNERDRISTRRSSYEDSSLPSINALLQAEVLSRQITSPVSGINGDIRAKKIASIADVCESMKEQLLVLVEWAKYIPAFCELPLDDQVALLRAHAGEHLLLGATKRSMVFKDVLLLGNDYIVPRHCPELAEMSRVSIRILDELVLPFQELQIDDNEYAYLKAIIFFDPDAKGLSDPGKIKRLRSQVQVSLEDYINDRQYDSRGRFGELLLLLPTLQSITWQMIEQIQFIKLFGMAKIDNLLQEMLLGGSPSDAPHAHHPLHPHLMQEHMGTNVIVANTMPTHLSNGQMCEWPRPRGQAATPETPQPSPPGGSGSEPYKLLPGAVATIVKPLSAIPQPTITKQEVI
- assayNotes: blockers of HNF4 self-association – biochemical, split-luciferase complementation, luminescence, counter-screen for ABHD5-PLIN5 interaction inhibitor project (AID 651674);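 also: light from luciferase halves that rejoin when HNF4 fusion proteins dimerize; 0% = DMSO only wells and the 100% control is not given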
- assaySetup: HNF4 dimerization, at 4 µM, stronger effect = higher value
Hit rate of the full screen: of about 2,200 compounds, about 1,700 (77%) were called active. So high a share suggests a set chosen from earlier hits. Not all results are given here.
testReadout: inhibition (%)

| compound | unitInfo | dataValue |
| --- | --- | --- |
| O=C1C=C(c2ccc(Cl)cc2)C(=O)N1Nc1ccccc1 | % | 107 |
| O=c1[nH][nH]c2c1[C@H](c1ccc(Cl)cc1)O[C@H](CCc1ccccc1)C2 | % | 12 |
| COCCN(CCOC)c1nc(N)c2c(N)nc3c(c2c1C#N)CC(=O)N3Cc1ccc(Cl)cc1 | % | 9.32 |
| CCCCOC(=O)CNc1nnc(SCC(=O)OCC)[nH]c1=O | % | 103 |
| CC(=O)Nc1ccc(C=CC(=O)c2ccc([N+](=O)[O-])cc2)cc1 | % | 82.5 |
| COc1ccc2c(c1)c(=Cc1ccc(N(C)C)cc1)c1cc(-c3ccccc3)[n+](C)n12 | % | 18.1 |
| CN1CCC[C@@H]1CCO[C@](C)(c1ccccc1)c1ccc(Cl)cc1 | % | 9.44 |
| COc1ccc(N/C=C(\C2OC(=O)c3ccccc32)[N+](=O)[O-])cc1 (stereo not drawn) | % | 22.1 |
| CC1=CC(C)(C)Nc2ccc(OC(=O)C(Cc3ccccc3)N3C(=O)C4CCCCC4C3=O)cc21 (stereo not drawn) | % | 15.7 |
| C[C@@H](CN1CCC[C@H]1CN1C(N)=NC[C@@H]1Cc1ccccc1)N1C[C@@H](Cc2ccccc2)N(CCCC2CCCC2)C1=N | % | 6.92 |
| Cc1c(CCOC(=O)CC23CC4CC(CC(C)(C4)C2)C3)sc[n+]1Cc1ccc([N+](=O)[O-])cc1 | % | 5.79 |
| Cc1csc(NC(=O)NC2(C(F)(F)F)Oc3ccccc3O2)n1 | % | 99.4 |
| O=C(N/N=C/C=C/c1ccco1)c1cccs1 | % | 39 |
| N#Cc1ccccc1S(=O)(=O)N1CCN(Cc2c(O)ccc3ccccc23)CC1 | % | 86.6 |
| COC(=O)C1(C)NC(c2ccccc2OC)C2C(=O)N(c3ccccc3)C(=O)C21 (stereo not drawn) | % | 2.83 |
| O=C(O)c1ccc2c(c1)C(=O)N(c1ccc(/C=C/C(=O)c3ccccc3)cc1)C2=O | % | 89.2 |
| O=C(/C(=C/c1cccc(Cl)c1)c1nc2ccccc2[nH]1)c1ccccc1 | % | 92 |
| C=C1C(=O)[C@]23C[C@H]1CCC2[C@@]1(C)C(C[C@@H]3O)[C@](C)(C(=O)O)CC[C@@H]1O (stereo partly drawn) | % | 85.8 |
| O=C(CCl)Nc1ccc(Sc2ccc(NC(=O)CCl)cc2)cc1 | % | 28 |
| CCC(C(=O)OCCN(CC)CC)c1ccccc1 (stereo not drawn) | % | 32.3 |
| O=C1/C(=C\c2ccc([N+](=O)[O-])cc2)CS(=O)(=O)C/C1=C/c1ccc([N+](=O)[O-])cc1 | % | 108 |
| CSc1nnc(NC(=O)c2nc(S(=O)(=O)Cc3ccc(C)cc3)ncc2Cl)s1 | % | 50.1 |
| O=C(/C=C/c1ccc(Cl)c([N+](=O)[O-])c1)c1ccc(O)cc1 | % | 72.8 |
